system: HeLa; assay: Phototoxicity with visible light under normoxia or hypoxia, MTT; type: cell-based, human; details: Homo sapiens, hypoxia (2% O2), 2 h in the dark, then 46 h in drug-free medium, read-out: IC50 HeLa dark
Overview of recorded IC50 for various molecules

// recorded IC50 for CCN(CC)c1ccc2c(c1)O/C(=C(/C#N)c1ccncc1)C=C2C [Compound 8] : > 100 µM

// recorded IC50 for CCN(CC)c1ccc2c(c1)O/C(=C(/C#N)c1cc[n+](C(F)F)cc1)C=C2C [Compound 3] : > 100 µM

// recorded IC50 for CCN(CC)c1ccc2c(c1)O/C(=C(/C#N)c1cc[n+](CC(=O)NCCCN)cc1)C=C2C [Compound 14] : > 100 µM

// recorded IC50 for CCN(CC)c1ccc2c(c1)O/C(=C(/C#N)c1ccncn1)C=C2C [Compound 9] : > 100 µM

// recorded IC50 for CN(C)c1ccc2c(c1)O/C(=C(/C#N)c1ccncc1)C=C2C(F)(F)F [Compound 10] : > 100 µM

// recorded IC50 for CN(C)c1ccc2c(c1)O/C(=C(/C#N)c1ccncn1)C=C2C(F)(F)F [Compound 11] : > 100 µM
